B1: CCDC89 (parent)
chain: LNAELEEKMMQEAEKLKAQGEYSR

Variants of: B1
Assay Notes: protein stability index of a GFP-peptide fusion (GPS, HEK-293T) (PSI 1-6); higher = more stable;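 note: lentivirally expressed fusions sorted by FACS into six bins by GFP to DsRed ratio, PSI derived from sequencing read proportions per bin multiplied by bin number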
Setup Conditions: c terminus: a fixed tail appended
Reported protein stability index values are given for each entry in this list.
Simply state the number, no unit and no words.

Request: // query protein stability index value for entry M9A
Result: 5.2

Request: Param item: K17L
Result: 4.54

***
Request: // query protein stability index value for entry A13H
Result: 4.85

Request: Param item: E6H
Result: 4.79

Request: Param item: E21T
Result: 4.19

Request: Param item: L16G
Result: 5.09

Request: Param item: E7F
Result: 4.97

Request: Param item: L1Y
Result: 4.95

Request: Param item: K15P
Result: 5.38

Request: Param item: Q11V
Result: 5.09

Request: Param item: M9N
Result: 5.1

Request: Param item: E7V
Result: 5

Request: Param item: A13R
Result: 4.99

Request: Param item: A3I
Result: 4.9

Request: Param item: E14C
Result: 4.33

Request: Param item: N2T
Result: 5.32

Request: Param item: A3D
Result: 5.08

Request: Param item: K15N
Result: 4.71

Request: Param item: E12W
Result: 4.42

Request: Param item: K15G
Result: 5.26

Request: Param item: M9W
Result: 5.04

Request: Param item: M10A
Result: 5.55

The measured values listed here are drawn from the supplement of paper PMC10567573.
